- Measurement Target: T1, mouse serum albumin (MSA), full length (mouse, UniProt P07724 25-608)
- T1 construct: mature; Immobilized on CM5 chip (SPR) or coated on plates (ELISA); also called mouse albumin; murine serum albumin
- Procedure Summary: SPR off-rate, immobilized MSA, 500 nM Adnectin, 25 C
Measured Metric: koff (s⁻¹)
Entry rule: numbers only, all in s⁻¹.

Problem: Which koff is listed for ADX_6727_H10 (L41S/K85S) (designed binder, Full His6-tagged entry) MGVSDVPRDLEVVAATPTSLLISWDAPAVTVRYYRITYGREVQKYSDLGPSYIYQEFTVPGSKSTATISGLKPGVDYTITVYAVTGSGESPASSSPISINYRTEIDKPSQHHHHHH ?
Solution: 0.0146

Problem: Which koff is listed for ADX_7016_G01 (Y44S) (designed binder, Full His6-tagged entry; also called 6727_G02) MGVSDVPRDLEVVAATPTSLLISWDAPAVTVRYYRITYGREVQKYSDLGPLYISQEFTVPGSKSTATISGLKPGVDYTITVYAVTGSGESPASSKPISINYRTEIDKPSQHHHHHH ?
Solution: 0.00213

Problem: Which koff is listed for ADX_6727_H08 (L38T/K85T) (designed binder, Full His6-tagged entry; Printed with the same substitutions as ADX_6727_B09) MGVSDVPRDLEVVAATPTSLLISWDAPAVTVRYYRITYGREVQKYSDTGPLYIYQEFTVPGSKSTATISGLKPGVDYTITVYAVTGSGESPASSTPISINYRTEIDKPSQHHHHHH ?
Solution: 0.0284

// next item, koff requested
Problem: Which koff is listed for ADX_6727_D03 (L41S) (designed binder, Full His6-tagged entry) MGVSDVPRDLEVVAATPTSLLISWDAPAVTVRYYRITYGREVQKYSDLGPSYIYQEFTVPGSKSTATISGLKPGVDYTITVYAVTGSGESPASSKPISINYRTEIDKPSQHHHHHH ?
Solution: 0.0134

Reference for the values: patent US20180258158A1
